test system: mice; test: toxicity of in vitro active anti-myxovirus compounds in mice; conditions: I/P, subacute
Endpoint: Maximal non-toxic dose LD0, subacute (mg/kg)
Just the number please, in mg/kg, no unit attached.

- CN(C)C[C@H]1[C@H](N)[C@H]2C[C@@H]1c1ccccc12 (relative stereo) [Compound III]: 250

Which Maximal non-toxic dose LD0, subacute reading was recorded for the compound NC12CC3CC(CC(C3)C1)C2 [Amantadine, reference compound] ? 150

Record request: Maximal non-toxic dose LD0, subacute value, item N[C@H]1C[C@@H]2C[C@H]1c1ccccc12 (relative stereo) [Compound I] 100

Entry NC1C2CCC(c3ccccc32)C1N (stereo not shown) [Compound VII] has what Maximal non-toxic dose LD0, subacute? 700

###

Quick reference: LD50 of the listed items.
experiment: toxicity of in vitro active anti-myxovirus compounds in mice; conditions: mouse, in vivo, ip, 50% toxic dose LD50, subacute, I/P, subacute
Output spec: scalar in mg/kg, unitless text.

- N[C@H]1C[C@@H]2C[C@H]1c1ccccc12 (relative stereo): 100

// below: LD50 requested for another compound
I am curious: what LD50 value has been reported for NC1C2CCC(c3ccccc32)C1N (stereo not drawn) ? 800

###

system: mice; experiment: toxicity of in vitro active anti-myxovirus compounds in mice; details: I/P, acute
Measured Maximal non-toxic dose LD0, acute values are reported for all entries that follow.
Report the figure in mg/kg without appending any unit label.

- N[C@H]1C[C@@H]2C[C@H]1c1ccccc12 (relative stereo): 125
- CN(C)C[C@H]1[C@H](N)[C@H]2C[C@@H]1c1ccccc12 (relative stereo): 500
- NC1C2CCC(c3ccccc32)C1N (stereo not shown): 700

Alright, here's another compound for you.
Look up Maximal non-toxic dose LD0, acute: NC12CC3CC(CC(C3)C1)C2 [Amantadine, reference compound] 175

###

experiment: toxicity of in vitro active anti-myxovirus compounds in mice; conditions: mouse, in vivo, po, 50% toxic dose LD50, acute, P/O, acute
Endpoint: LD50
Kindly report the value followed by its unit.

Query (molecule): N[C@H]1C[C@@H]2C[C@H]1c1ccccc12 (relative stereo) ; field requested: LD50 275 mg/kg
